# target.under.test: human GLP-1 receptor (human, UniProt P43220 24-463)
# method.notes: cell-based or functional assay

{"binder": "MLC111 (ligand, Moiety B (HOOC-(CH2)16-CO-gGlu-2XADO-EDA-CO-CH2) on 51C of Linker (82C of fusion polypeptide)) HGEGTFTSDVSSYLEEQAAKEFIAWLVRGGGGAQPGAQPGAQPGAQPGAQPGAQPGAQPGAQPGQEPGAQPGQEPGAQPGQCPGQEPGQEPGAQPGQEPGAQPGQEPGAQPARQGDHCPLGPGRCCRLHTVRASLEDLGWADWVLSPREVQVTMCIGACPSQFRAANLHAQIKTSLHRLKPDTVPAPCCVPASYNPMVLIQKTDTGVSLQTYDDLLAKDCHCI", "GLP-1 activity (EC50, pM)": 11}
{"binder": "MLC105 (ligand, Moiety B (HOOC-(CH2)16-CO-gGlu-2XADO-EDA-CO-CH2) on 17C of Linker (48C of fusion polypeptide)) HGEGTFTSDVSSYLEEQAAKEFIAWLVRGGGGAQPGAQPGAQPGAQPCQAPGAQPGAQPGAQPGQEPGAQPGQEPGAQPGQEPGAQPGQEPGAQPGQEPGAQPGQEPGAQPARQGDHCPLGPGRCCRLHTVRASLEDLGWADWVLSPREVQVTMCIGACPSQFRAANLHAQIKTSLHRLKPDTVPAPCCVPASYNPMVLIQKTDTGVSLQTYDDLLAKDCHCI", "GLP-1 activity (EC50, pM)": 10}
{"binder": "MLC093 (ligand, Moiety B (HOOC-(CH2)16-CO-gGlu-2XADO-EDA-CO-CH2) on 33C of Linker (64C of fusion polypeptide)) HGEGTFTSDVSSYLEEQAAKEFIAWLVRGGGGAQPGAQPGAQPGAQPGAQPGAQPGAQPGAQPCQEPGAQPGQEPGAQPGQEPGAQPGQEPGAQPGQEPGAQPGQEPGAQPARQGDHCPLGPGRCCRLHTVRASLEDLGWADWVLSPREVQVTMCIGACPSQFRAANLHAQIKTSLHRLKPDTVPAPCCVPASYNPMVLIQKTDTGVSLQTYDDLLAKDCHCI", "GLP-1 activity (EC50, pM)": 1.4}
{"binder": "MLC084 (ligand, Moiety C (HOOC-(CH2)20-CO-gGlu-2XADO-EDA-CO-CH2) on 39C of Linker (70C of fusion polypeptide)) HGEGTFTSDVSSYLEEQAAKEFIAWLVRGGGGQEPGAQPGQEPGAQPGQEPGAQPGQEPGAQPGQEPGQCPGQEPGAQPGAQPGAQPGAQPGAQPGAQPGAQPGAQPGAQPARQGDHCPLGPGRCCRLHTVRASLEDLGWADWVLSPREVQVTMCIGACPSQFRAANLHAQIKTSLHRLKPDTVPAPCCVPASYNPMVLIQKTDTGVSLQTYDDLLAKDCHCI", "GLP-1 activity (EC50, pM)": 1.3}
{"binder": "MLC085 (ligand, Moiety B (HOOC-(CH2)16-CO-gGlu-2XADO-EDA-CO-CH2) on 37C of Linker (68C of fusion polypeptide)) HGEGTFTSDVSSYLEEQAAKEFIAWLVRGGGGQEPGAQPGQEPGAQPGQEPGAQPGQEPGAQPGQEPCQAPGQEPGAQPGAQPGAQPGAQPGAQPGAQPGAQPGAQPGAQPARQGDHCPLGPGRCCRLHTVRASLEDLGWADWVLSPREVQVTMCIGACPSQFRAANLHAQIKTSLHRLKPDTVPAPCCVPASYNPMVLIQKTDTGVSLQTYDDLLAKDCHCI", "GLP-1 activity (EC50, pM)": 1.5}
